Values from BindingDB's records for doi:10.1021/jm00054a015

// values below are reported pIC50
- TARGET_DESC: Dimer of Gag-Pol polyprotein [489-587] (Human immunodeficiency virus 1, UniProt P12497)
- Construct: 489-587
- PROTOCOL_SUMMARY: Protease Inhibition Assay
- PARTICULARS: pH 5.5; 30 °C
pIC50: −log10 of the molar value.

>  <COMPOUND>
CC(C)(C)NC(=O)C1C[C@@H]2CCCC[C@@H]2CN1C[C@@H](O)[C@H](Cc1ccccc1)NC(=O)O[C@@H]1CCCOC1 (some centres undefined)

>  <pIC50>
6.51

$$$$
>  <COMPOUND>
CC(C)(C)NC(=O)C1C[C@@H]2CCCC[C@@H]2CN1C[C@@H](O)[C@H](Cc1ccccc1)NC(=O)O[C@@H]1C=CCOC1 (some centres undefined)

>  <pIC50>
7.31

$$$$
>  <COMPOUND>
CC(C)(C)NC(=O)C1C[C@@H]2CCCC[C@@H]2CN1C[C@@H](O)[C@H](Cc1ccccc1)NC(=O)O[C@H]1C=CCOC1 (some centres undefined)

>  <pIC50>
6.50

$$$$
>  <COMPOUND>
CC(C)(C)NC(=O)C1C[C@@H]2CCCC[C@@H]2CN1C[C@@H](O)[C@H](Cc1ccccc1)NC(=O)O[C@H]1CCCOC1 (some centres undefined)

>  <pIC50>
6.41

$$$$
